- System: BT-474 cells
- test-protocol: CellTiter-Glo (CTG) ATP viability assay, BT-474
- Format: cell-based
- condition-notes: Homo sapiens, BT-474, BT-474 cell line; CellTiter-Glo; read-out: EC50, CTG
Please note: EC50 exactly at 6 µM is criterion not met. Only values below 6 µM get criterion met.

[
  {
    "compound": "CC[C@]1(O)C[C@@H]2CN(CCc3c([nH]c4ccccc34)[C@@](C(=O)OC)(c3cc4c(cc3OC)N(C)[C@H]3[C@@](O)(C(=O)OC)[C@H](OC(C)=O)[C@]5(CC)C=CCN6CC[C@]43[C@@H]65)C2)C1",
    "cat": "criterion not met"
  },
  {
    "compound": "C[C@]12CC[C@@H]3c4ccc(O)cc4C[C@@H](CCCCCCCCC[S+]([O-])CCCC(F)(F)C(F)(F)F)[C@H]3[C@@H]1CC[C@@H]2O (some centres unmarked)",
    "cat": "criterion not met"
  },
  {
    "compound": "O=c1[nH]cc(F)c(=O)[nH]1",
    "cat": "criterion met"
  },
  {
    "compound": "COc1cccc2c1C(=O)c1c(O)c3c(c(O)c1C2=O)C[C@@](O)(C(=O)CO)C[C@@H]3O[C@H]1C[C@H](N)[C@H](O)[C@H](C)O1",
    "cat": "criterion met"
  }
]

In plain terms, does CS(=O)(=O)CCNCc1ccc(-c2ccc3ncnc(Nc4ccc(OCc5cccc(F)c5)c(Cl)c4)c3c2)o1 come in under 6 µM for EC50?
criterion met

---

Exercise: for every item that follows, state its recorded Max Asymptote.
- Test system: MCF-7 cells
- test-protocol: cells
- condition-notes: 24 h QPI, MCF-7, 4-parameter Hill fit of mean SGR vs concentration, one line per replicate
- Description: In some embodiments, breast cancer cell lines are imaged, representing diverse clinical subtypes, summarized in Table 2 below, using a QPI microscope (FIG. 1A) based on differential phase contrast (DPC) microscopy and phase reconstruction via a QPI microscope system. […] As described below, in reference to FIG. 1A, a growth response of cells is measured noninvasively using QPI via a QPI microscope system 110 before being assayed using a CTG reader 115. […]
Give bare numbers.

[
  {
    "compound": "CC(=O)c1c(C)c2cnc(Nc3ccc(N4CCNCC4)cn3)nc2n(C2CCCC2)c1=O",
    "measured-target": "MCF-7 cells",
    "Max Asymptote": 0.02169
  },
  {
    "compound": "CS(=O)(=O)CCNCc1ccc(-c2ccc3ncnc(Nc4ccc(OCc5cccc(F)c5)c(Cl)c4)c3c2)o1",
    "measured-target": "MCF-7 cells",
    "Max Asymptote": 0.02919
  }
]

For every listed record, write down its Max Asymptote.
1. CC[C@]1(O)C[C@@H]2CN(CCc3c([nH]c4ccccc34)[C@@](C(=O)OC)(c3cc4c(cc3OC)N(C)[C@H]3[C@@](O)(C(=O)OC)[C@H](OC(C)=O)[C@]5(CC)C=CCN6CC[C@]43[C@@H]65)C2)C1
2. C[C@]12CC[C@@H]3c4ccc(O)cc4C[C@@H](CCCCCCCCC[S+]([O-])CCCC(F)(F)C(F)(F)F)[C@H]3[C@@H]1CC[C@@H]2O (stereo partly shown)

[0.01958, 0.04169]

---

- System: MDA-MB-231 cells
- test-protocol: CellTiter-Glo (CTG) ATP viability assay, MDA-MB-231
- Assay type: cell-based
- condition-notes: Homo sapiens, MDA-MB-231, 72 h, 72 h CTG, MDA-MB-231, Hill fit; read-out: log10(EC50) (converted)
- Source text: CTG (e.g., read by the CTG reader 115) is a cell viability assay that quantifies the amount of ATP present at the end of an experiment as an indicator of the number of live cells. The electronic controller 155 measures ATP content in each condition as a readout by a luminescent signal, which is normalized by the luminescence of the control (e.g., a control well) to determine cell viability relative to on-plate controls. […]
outcome-measure: EC50
Phrase the answer as number then unit, nothing more needed.

Example entries begin here.
[
  {
    "compound": "O=c1[nH]cc(F)c(=O)[nH]1 [5FU, 5-Fluorouracil]",
    "EC50": "6 µM"
  },
  {
    "compound": "C[C@]12CC[C@@H]3c4ccc(O)cc4C[C@@H](CCCCCCCCC[S+]([O-])CCCC(F)(F)C(F)(F)F)[C@H]3[C@@H]1CC[C@@H]2O (stereo partly shown) [Fulvestrant]",
    "EC50": "31.4 µM"
  },
  {
    "compound": "CC(=O)O[C@@]12CO[C@@H]1C[C@H](O)[C@@]1(C)C(=O)[C@H](O)C3=C(C)[C@@H](OC(=O)[C@H](O)[C@@H](NC(=O)OC(C)(C)C)c4ccccc4)C[C@@](O)([C@@H](OC(=O)c4ccccc4)[C@H]21)C3(C)C [Docetaxel]",
    "EC50": "0.00396 µM"
  }
]

Note: attention shifts to another entry.
Report EC50 for COc1cccc2c1C(=O)c1c(O)c3c(c(O)c1C2=O)C[C@@](O)(C(=O)CO)C[C@@H]3O[C@H]1C[C@H](N)[C@H](O)[C@H](C)O1 [Doxorubicin] please.
0.204 µM

---

- Tested on: MDA-MB-231 cells
- test-protocol: CellTiter-Glo (CTG) ATP viability assay, MDA-MB-231
- Type: cell-based
- condition-notes: MDA-MB-231 cell line; depth of response, CellTiter-Glo
outcome-measure: DoR CTG

Example entries begin here.
[
  {
    "molecule": "CCC(=C(c1ccc(O)cc1)c1ccc(OCCN(C)C)cc1)c1ccccc1 [4HT, 4-hydroxy-Tamoxifen]",
    "DoR CTG": 1.0
  },
  {
    "molecule": "CC[C@]1(O)C[C@@H]2CN(CCc3c([nH]c4ccccc34)[C@@](C(=O)OC)(c3cc4c(cc3OC)N(C)[C@H]3[C@@](O)(C(=O)OC)[C@H](OC(C)=O)[C@]5(CC)C=CCN6CC[C@]43[C@@H]65)C2)C1 [Vinblastine]",
    "DoR CTG": 1.0
  }
]

Note: attention shifts to another entry.
Report DoR CTG for COc1cccc2c1C(=O)c1c(O)c3c(c(O)c1C2=O)C[C@@](O)(C(=O)CO)C[C@@H]3O[C@H]1C[C@H](N)[C@H](O)[C@H](C)O1 [Doxorubicin] please.
1.0

---

- Test system: MDA-MB-231 cells
- test-protocol: CellTiter-Glo (CTG) ATP viability assay, MDA-MB-231
- Type: cell-based
- condition-notes: MDA-MB-231 cell line; CellTiter-Glo; read-out: EC50, CTG
outcome-measure: pEC50
Give bare numbers, as −log10 of the molar value.

Observed pEC50 on MDA-MB-231 cells for CCC(=C(c1ccc(O)cc1)c1ccc(OCCN(C)C)cc1)c1ccccc1 [4HT, 4-hydroxy-Tamoxifen] , please.
5.16

---

- Tested on: BT-474 cells
- test-protocol: cells
- condition-notes: BT-474 cell line; depth of response, QPI
outcome-measure: DoR QPI

Example entries begin here.
[
  {
    "compound": "COc1cccc2c1C(=O)c1c(O)c3c(c(O)c1C2=O)C[C@@](O)(C(=O)CO)C[C@@H]3O[C@H]1C[C@H](N)[C@H](O)[C@H](C)O1",
    "DoR QPI": 1.4
  },
  {
    "compound": "CC(=O)O[C@@]12CO[C@@H]1C[C@H](O)[C@@]1(C)C(=O)[C@H](O)C3=C(C)[C@@H](OC(=O)[C@H](O)[C@@H](NC(=O)OC(C)(C)C)c4ccccc4)C[C@@](O)([C@@H](OC(=O)c4ccccc4)[C@H]21)C3(C)C",
    "DoR QPI": 0.8
  },
  {
    "compound": "C[C@]12CC[C@@H]3c4ccc(O)cc4C[C@@H](CCCCCCCCC[S+]([O-])CCCC(F)(F)C(F)(F)F)[C@H]3[C@@H]1CC[C@@H]2O (some centres unmarked)",
    "DoR QPI": 0.6
  },
  {
    "compound": "CC[C@]1(O)C[C@@H]2CN(CCc3c([nH]c4ccccc34)[C@@](C(=O)OC)(c3cc4c(cc3OC)N(C)[C@H]3[C@@](O)(C(=O)OC)[C@H](OC(C)=O)[C@]5(CC)C=CCN6CC[C@]43[C@@H]65)C2)C1",
    "DoR QPI": 2.8
  }
]

Report DoR QPI for O=c1[nH]cc(F)c(=O)[nH]1 please.
0.2

---

- Test system: BT-474 cells
- test-protocol: cells
- condition-notes: Homo sapiens, BT-474, 24 h, read-out: log10(EC50), 24 h QPI, BT-474, Hill fit (converted); EC50 in μM per Table 1
outcome-measure: EC50 (µM)
One number for each entry, in µM.

[
  {
    "compound": "CC[C@]1(O)C[C@@H]2CN(CCc3c([nH]c4ccccc34)[C@@](C(=O)OC)(c3cc4c(cc3OC)N(C)[C@H]3[C@@](O)(C(=O)OC)[C@H](OC(C)=O)[C@]5(CC)C=CCN6CC[C@]43[C@@H]65)C2)C1",
    "measured-target": "BT-474 cells",
    "units-label": "µM",
    "EC50": 48.8
  },
  {
    "compound": "C[C@]12CC[C@@H]3c4ccc(O)cc4C[C@@H](CCCCCCCCC[S+]([O-])CCCC(F)(F)C(F)(F)F)[C@H]3[C@@H]1CC[C@@H]2O (some centres unmarked)",
    "measured-target": "BT-474 cells",
    "units-label": "µM",
    "EC50": 13.7
  },
  {
    "compound": "O=c1[nH]cc(F)c(=O)[nH]1",
    "measured-target": "BT-474 cells",
    "units-label": "µM",
    "EC50": 0.0682
  },
  {
    "compound": "COc1cccc2c1C(=O)c1c(O)c3c(c(O)c1C2=O)C[C@@](O)(C(=O)CO)C[C@@H]3O[C@H]1C[C@H](N)[C@H](O)[C@H](C)O1",
    "measured-target": "BT-474 cells",
    "units-label": "µM",
    "EC50": 1.78
  }
]

Note: attention shifts to another entry.
Report EC50 for CC(=O)c1c(C)c2cnc(Nc3ccc(N4CCNCC4)cn3)nc2n(C2CCCC2)c1=O please.
13.9
